Entries annotated with measured logP
test.readout: logP

structure_notation=CCC(CC)C(=O)NS(=O)(=O)c1ccc(C)cc1[N+](=O)[O-] val=2.67
structure_notation=Cc1ccc(S(N)(=O)=O)c(NC(=O)C(C)C)c1 val=1.45
structure_notation=CC(C)C(=O)Nc1cc(Cl)ccc1S(N)(=O)=O val=1.87
structure_notation=CC(C)C(=O)Nc1ccc(C(F)(F)F)cc1S(N)(=O)=O val=2.45
structure_notation=CC(C)C(=O)NS(=O)(=O)c1ccccc1N val=1.17
structure_notation=CC(C)C(=O)NS(=O)(=O)c1ccccc1[N+](=O)[O-] val=1.72
structure_notation=CCC(CC)C(=O)Nc1cc(C(F)(F)F)ccc1S(N)(=O)=O val=3.06
structure_notation=CC(C)C(=O)Nc1ccccc1S(N)(=O)=O val=0.97
structure_notation=COc1ccc(S(N)(=O)=O)c(NC(=O)C(C)C)c1 val=1.37
structure_notation=CC(C)C(=O)NS(=O)(=O)c1cc([N+](=O)[O-])cc(C(F)(F)F)c1 val=3.1
structure_notation=Cc1ccc(S(=O)(=O)NC(=O)C(C)C)c([N+](=O)[O-])c1 val=2.17
structure_notation=CCC(CC)C(=O)Nc1cc(C)ccc1S(N)(=O)=O val=2.13
structure_notation=CC(C)C(=O)NS(=O)(=O)c1ccc(C(F)(F)F)cc1N val=2.56
structure_notation=Cc1ccc(S(=O)(=O)NC(=O)C(C)C)c(N)c1 val=1.65
structure_notation=CCC(CC)C(=O)NS(=O)(=O)c1ccccc1N val=1.64
structure_notation=CCC(CC)C(=O)NS(=O)(=O)c1ccc(Cl)cc1N val=2.53
structure_notation=CCC(CC)C(=O)NS(=O)(=O)c1ccc(OC)cc1N val=2.03
structure_notation=COc1ccc(S(=O)(=O)NC(=O)C(C)C)c(N)c1 val=1.58
structure_notation=CCC(CC)C(=O)Nc1cc(Cl)ccc1S(N)(=O)=O val=2.55
structure_notation=CCC(CC)C(=O)Nc1ccccc1S(N)(=O)=O val=1.62
structure_notation=CCC(CC)C(=O)Nc1cc(OC)ccc1S(N)(=O)=O val=2.01
structure_notation=CCC(CC)C(=O)NS(=O)(=O)c1ccc(C)cc1N val=2.18
structure_notation=CCC(CC)C(=O)NS(=O)(=O)c1cc([N+](=O)[O-])cc(C(F)(F)F)c1 val=3.57
structure_notation=CCC(CC)C(=O)NS(=O)(=O)c1ccccc1[N+](=O)[O-] val=2.17

The reported measurements were obtained from the SangsterLogP compilation.
